System: Lu1
Experiment: Cytotoxicity against human Lu1 cells
Assay type: functional
Settings: read-out: ED50 (the source's name)
Recorded EC50 values for a group of compounds are listed next.

> print(dat)
                                   compound  experimentalendpoint  resultvalue
1  CC(=O)O[C@@H]1C=C2C(=O)OC[C@]23CC[C@@H](C)[C@](C)(CCC2=CC(=O)OC2)C3C1 (stereo partly drawn) [ARTICULIN ACETATE]                  EC50    > 20 mg/L
2  C=C1CC[C@@H]2[C@H]([C@H]3[C@H]1CC[C@]3(C)O)C2(C)C                  EC50    > 20 mg/L

Here's the next entry for you.
Quick check: EC50 of C[C@@H]1CC[C@@]23COC(=O)[C@H]2C[C@@H](O)C=C3[C@@]1(C)CCc1ccoc1 ? > 20 mg/L
